tested on: MS2 coat protein; assay: apparent KD of MS2 coat protein; designed switch direction (-1 OFF switch, 1 ON switch): -1; higher = weaker reporter binding; settings: input ligand: microRNA oligo, concentration not stated
assay metric: apparent KD of MS2 coat protein
Could you write the number and then its unit?

Inquiry: API: value(readout=apparent KD of MS2 coat protein, system=MS2 coat protein) for record GAAACGGGUGCACCUCAGUCACAUGAGGAUCACCCAUGUUCUGAGGAUAUGCAUCCAAACGGAACGCAGAAGGCGGAACGUAAC [Beisoner] (Eterna round: R96, puzzle: Exclusion NG 3)
Reply text: 14 nM

Inquiry: Lookup UGUUGUCGCGCAGGAUAUGUAUGAGGAUCACCCAUUAAUAAAUUUUAACCACGAGGAUCACCCGUGUAGAAGGGCGGGACAACA [pwkr exNG2 2xF5 1xFMN.15] (Eterna round: R96, puzzle: Exclusion NG 2)
Reply text: 18.3 nM

Inquiry: Follow-up item: GCAGUGACAUGAGGAUCACCCAUGUGGAACUCGUGAAUAAGCGAGGAUAUCUCAAGAUAUCAAAGAGAGAAGGCGUACACUGCA [Diorso] (Eterna round: R96, puzzle: Exclusion NG 3)
Reply text: 159 nM

Inquiry: Further, for AGCUGUGGCCGAGGAUAUCUAUCUUCAAUAACCGAAAUAUAAUCGGACAUGAGGAUCACCCAUGUAGAGAAGGCGGUCUCAGCA [Eli eng2 - 091] (Eterna round: R96, puzzle: Exclusion NG 2) ?
Reply text: 27.3 nM

Inquiry: Request: UACAUGAGGAUCACCCAUGUUUUGUCGUGUAUGGUAUUUAUCUAGGAUAUCAAUCUAUUUAAUUAUGAGAAGGAGAAUAUUAAU [JMF's solution 53] (Eterna round: R96, puzzle: Exclusion NG 3)
Reply text: 32.5 nM

Inquiry: Input UUUGUUUUGCAAGGAUAUGUUUAAUUUUAGUUUCCUUACACAUGAGGAUCACCCAUGUUAUACUUACAGAAGGUGCGUAAUUUG [Excl-NG2-LRO03] (Eterna round: R96, puzzle: Exclusion NG 2)
Reply text: 122 nM

Inquiry: And the next one, UAGCAUUGCCUUUGGUAGUGCCUUACAUGAGGAUCACCCAUGUAGGAUAUGGUAGGCUUUGCUUACCAGAAGGACAUGGUAAUU [JL ENG3 1.06] (Eterna round: R96, puzzle: Exclusion NG 3) ?
Reply text: 54.1 nM

Inquiry: Same for CGAUAAAGCUGAGGAUAUGAGAAUAGAAAGAAAUCAGAAGGCAGACAUGAGGAUCACCCAUGUGAGUUCUCGAGAUUAGAUAUU [Prohibition 47 - Jieux - Exclusion NG 1] (Eterna round: R96, puzzle: Exclusion NG 1)
Reply text: 22.2 nM

Inquiry: Param item: AGGUGUCUCUGGAAACAUGAGGAUCACCCAUGUUGAGUUAGCGAGGAUAUCGGUAACCAUUGUUAUGAGAAGGCGCAAACCAGA [Ex NG3 #39] (Eterna round: R96, puzzle: Exclusion NG 3)
Reply text: 18.3 nM
